Every entry's value here was drawn from patent US10100058B2.

- test-target: recombinant CaMKIIδ (Homo sapiens (Human), UniProt Q13557)
- procedure-summary: CaMKIIδ biochemical assay (HTRF)
- condition-notes: 10 pM CaMKIIδ, 110 nM calmodulin, 12 μM ATP, 1 hour; read-out: CAMKIID-HTRF-384V2 (IC50 - nM)
endpoint-name: IC50 (nM)

As a guide, the following entries are already answered.
• CCN(CC)[C@@H](C)CNC(=O)c1cc(NCC(=O)NC)nc(-c2cnn3ccc(-c4cccs4)nc23)c1 = 0.17
• CCN(CC)[C@@H](C)CNC(=O)c1cc(-c2cnn3ccc(-c4cccs4)nc23)nc(N(C)S(C)(=O)=O)c1 = 0.8
• NC[C@H]1CCCN1C(=O)c1ccnc(-c2cnn3ccc(-c4cccs4)nc23)c1 = 2.85
• CCN(CC)[C@@H](C)CNC(=O)c1cc(-c2cnn3ccc(-c4cccs4)nc23)nc(N2CC[C@H]2C(=O)N2CC(F)(F)C2)c1 = 0.22
• CCN(CC)[C@@H](C)CNC(=O)c1cc(-c2cnn3ccc(-c4cccs4)nc23)nc(N2CC[C@H]2C(=O)N2CC(O)C2)c1 = 0.17

I: COC1CN(c2cc(C(=O)NC[C@H](C)N)cc(-c3cnn4ccc(-c5ccccc5)nc34)n2)C1
II: CCN(CC)C(C)CNC(=O)c1ccnc(-c2cnn3ccc(-c4ccccc4)nc23)c1 (stereo not drawn)
Determine, for I and II , which has the greater value of IC50. Selection: enter the item's label.
I
(I: 85.3 nM, II: 7.03 nM)

1: CC(C)C(CNC(=O)c1ccnc(-c2cnn3ccc(-c4ccccc4)nc23)c1)NCC1CC1 (stereo not drawn)
2: CCN(CC)[C@@H](C)CNC(=O)c1cc(OCC(C)(C)O)nc(-c2cnn3ccc(-c4cccs4)nc23)c1
Pick one, 1 or 2 : lowest reported IC50. Write down the label attached to your selection.
2
(2: 0.1 nM, 1: 4.98 nM)

----------
- test-target: recombinant CaMKIIδ (Homo sapiens (Human))
- procedure-summary: CaMKIIδ biochemical assay (HTRF)
- condition-notes: 10 pM CaMKIIδ, 110 nM calmodulin, 12 μM ATP, 1 hour; read-out: CAMKIID-HTRF-384V2 (IC50 - nM)
endpoint-name: IC50 (nM)

- CCN(CC)[C@@H](C)CNC(=O)c1cc(-c2cnn3ccc(-c4cccs4)nc23)nc(N2CC(C#N)C2)c1: 0.1

A: CCN(CC)[C@@H](C)CNC(=O)c1cc(-c2cnn(C)c2)nc(-c2cnn3ccc(-c4cccs4)nc23)c1
B: CCC(CNC(=O)c1ccnc(-c2cnn3ccc(-c4ccccc4)nc23)c1)NCC1CC1 (stereo not shown)
C: CCN(CC)[C@@H](C)CNC(=O)c1cc(O[C@@H]2CCOC2)nc(-c2cnn3ccc(-c4cccs4)nc23)c1
Give the ascending ranking of the items by reported IC50. Your answer should be the labels, listed in the requested order.
A, C, B
(A: 0.08 nM, C: 1.07 nM, B: 8.52 nM)

----------
- test-target: recombinant CaMKIIδ (Homo sapiens (Human), UniProt Q13557)
- procedure-summary: CaMKIIδ biochemical assay (HTRF)
- condition-notes: 10 pM CaMKIIδ, 110 nM calmodulin, 12 μM ATP, 1 hour; read-out: CAMKIID-HTRF-384V2 (IC50 - nM)
endpoint-name: IC50 (nM)

Examples with their reported IC50 follow.
- CCN(CC)[C@@H](C)CNC(=O)c1cc(N[C@H](C)C(=O)NC)nc(-c2cnn3ccc(-c4cccs4)nc23)c1: 3.66
- NC[C@@H]1CCCCN1C(=O)c1cc(Cl)nc(-c2cnn3ccc(-c4ccccc4)nc23)c1: 163

a: CCN(CC)[C@@H](C)CNC(=O)c1cc(-c2cnn3ccc(-c4cccs4)nc23)nc(C(C)C)c1
b: CCN(CC)[C@@H](C)CNC(=O)c1cc(-c2cnn3ccc(-c4cccs4)nc23)nc(N2CCNCC2)c1
# query: argmin of IC50 over a and b Label of pick, please.
b

----------
- test-target: recombinant CaMKIIδ (Homo sapiens (Human))
- procedure-summary: CaMKIIδ biochemical assay (HTRF)
- condition-notes: 10 pM CaMKIIδ, 110 nM calmodulin, 12 μM ATP, 1 hour; read-out: CAMKIID-HTRF-384V2 (IC50 - nM)
- Method: CaMKIIδ Biochemical Assay The biochemical activity of recombinant CaMKIIδ was measured by monitoring the phosphorylation of a target peptide using Homogenous Time Resolved Fluorescence (HTRF) technology from CisBio Bioassays.
endpoint-name: IC50 (nM)

• CCN(CC)[C@@H](C)CNC(=O)c1cc(-c2cnn3ccc(-c4cccs4)nc23)nc(N2CC[C@H]2c2nc(C)no2)c1 = 0.71
• CCC(CNC(=O)c1ccnc(-c2cnn3ccc(-c4cccs4)nc23)c1)NC(C)C (stereo not drawn) = 12.1
• CCOC(=O)Nc1cc(C(=O)NC[C@H](C)N(CC)CC)cc(-c2cnn3ccc(-c4cccs4)nc23)n1 = 0.23
• CCN(CC)[C@@H](C)CNC(=O)c1cc(-c2cc[nH]n2)nc(-c2cnn3ccc(-c4cccs4)nc23)c1 = 0.1

A: CCN(CC)[C@@H](C)CNC(=O)c1cc(N[C@@H](C)CO)nc(-c2cnn3ccc(-c4cccs4)nc23)c1
B: COC1CN(c2cc(C(=O)NCC34CCCN3CCC4)cc(-c3cnn4ccc(-c5ccccc5)nc34)n2)C1
Which numeric IC50 is bigger, that of A or that of B ? Which one? Tell me its label.
B
(B: 105 nM, A: 0.16 nM)

----------
- test-target: recombinant CaMKIIδ (Homo sapiens (Human), UniProt Q13557)
- procedure-summary: CaMKIIδ biochemical assay (HTRF)
- condition-notes: 10 pM CaMKIIδ, 110 nM calmodulin, 12 μM ATP, 1 hour; read-out: CAMKIID-HTRF-384V2 (IC50 - nM)
endpoint-name: IC50 (nM)

Worked cases, answers included:
• CCN(CC)[C@@H](C)CNC(=O)c1cc(-c2cnn3ccc(-c4ccsc4)nc23)nc(N2CC(OC)C2)c1 [Example 165] = 0.13
• CCN(CC)[C@@H](C)CNC(=O)c1cc(-c2cnn3ccc(-c4cccs4)nc23)nc(N2CC[C@H]2C(=O)N2CC(OC)C2)c1 [Example 295] = 0.25
• CCN(CC)[C@@H](C)CNC(=O)c1cc(-c2cnn3ccc(-c4ccns4)nc23)nc(N2CC(OC)C2)c1 [Example 176] = 0.29
• C[C@@H](CNC(=O)c1ccnc(-c2cnn3ccc(-c4cccs4)nc23)c1)NCC(F)(F)F [Example 28] = 53.4
• CCN(CC)CCNC(=O)c1cc(-c2cnn3ccc(-c4cccs4)nc23)nc(N2CC[C@H]2C(=O)NC)c1 [Example 360] = 2.98

a: CC(C)N[C@@H](C)CNC(=O)c1ccnc(-c2cnn3ccc(-c4cccs4)nc23)c1 [Example 32]
b: CCN(CC)[C@@H](C)CNC(=O)c1cccc(-c2cnn3ccc(-c4cccs4)nc23)n1 [Example 364]
Please indicate which has the smaller reported IC50: a , or b . I would appreciate it if you answered with the label of your choice.
a

----------
- test-target: recombinant CaMKIIδ (Homo sapiens (Human), UniProt Q13557)
- procedure-summary: CaMKIIδ biochemical assay (HTRF)
- condition-notes: 10 pM CaMKIIδ, 110 nM calmodulin, 12 μM ATP, 1 hour; read-out: CAMKIID-HTRF-384V2 (IC50 - nM)
- Protocol: CaMKIIδ Biochemical Assay The biochemical activity of recombinant CaMKIIδ was measured by monitoring the phosphorylation of a target peptide using Homogenous Time Resolved Fluorescence (HTRF) technology from CisBio Bioassays.
endpoint-name: IC50 (nM)

- O=C(c1ccnc(-c2cnn3ccc(-c4cccs4)nc23)c1)N1C2CCNCC1CC2 (stereo not drawn): 6.14

a: CCN(CC)[C@@H](C)CNC(=O)c1cc(-c2cnn3ccc(-c4cccs4)nc23)nc(N2CC[C@H](OC)C2)c1
b: CCN[C@@H](CO)CNC(=O)c1ccnc(-c2cnn3ccc(-c4ccccc4)nc23)c1
Kindly identify which of a and b has the larger recorded IC50 value. Bench note: the answer is the label of the chosen record.
b
(b: 5.34 nM, a: 0.17 nM)

----------
- test-target: recombinant CaMKIIδ (Homo sapiens (Human), UniProt Q13557)
- procedure-summary: CaMKIIδ biochemical assay (HTRF)
- condition-notes: 10 pM CaMKIIδ, 110 nM calmodulin, 12 μM ATP, 1 hour; read-out: CAMKIID-HTRF-384V2 (IC50 - nM)
endpoint-name: IC50 (nM)

Reference set (5 entries):
* CCN(CC)[C@@H](C)CNC(=O)c1cc(NC2COC2)nc(-c2cnn3ccc(-c4cccs4)nc23)c1 | 83.2
* CN1CCC[C@H]1CNC(=O)c1ccnc(-c2cnn3ccc(-c4cccs4)nc23)c1 | 95.5
* CCN(CC)CCNC(=O)c1cc(-c2cnn3ccc(-c4cccs4)nc23)nc(N2CC(C)(O)C2)c1 | 1.07
* C[C@H](N)CNC(=O)c1cc(-c2cnn3ccc(-c4cccs4)nc23)nc(N2CC(O)C2)c1 | 18.1
* COC1CN(c2cc(C(=O)NC[C@@H]3CCCN3)cc(-c3cnn4ccc(-c5cccs5)nc34)n2)C1 | 33.9

1: CCN[C@@H](C)CNC(=O)c1ccnc(-c2cnn3ccc(-c4cccs4)nc23)c1
2: CC(C)NC(CNC(=O)c1ccnc(-c2cnn3ccc(-c4ccccc4)nc23)c1)C(C)C (stereo not shown)
Between 1 and 2 , whose recorded IC50 is greater? Response format: the label of the selected entry.
2
(2: 31.9 nM, 1: 4.97 nM)

A: CCN(CC)[C@@H](C)CNC(=O)c1cncc(-c2cnn3ccc(-c4cccs4)nc23)c1
B: COC1CN(c2cc(C(=O)NCC3(N)CCC3)cc(-c3cnn4ccc(-c5ccccc5)nc34)n2)C1
C: NC[C@H]1CCCCN1C(=O)c1cc(Cl)nc(-c2cnn3ccc(-c4cccs4)nc23)c1
D: CCN(CC)[C@@H](C)CNC(=O)c1cc(-c2cnn3ccc(-c4ccncc4)nc23)nc(N2CC(OC)C2)c1
Hi! Can you put these in order of IC50, lowest number first? Write the labels out in the order the request specifies.
C, A, D, B

I: CCN(CC)[C@@H](C)CNC(=O)c1cc(OC[C@H](C)OC)nc(-c2cnn3ccc(-c4cccs4)nc23)c1
II: CCN(CC)[C@@H](C)CNC(=O)c1cc(-c2cnn3ccc(-c4ccccc4)nc23)nc(N2CC(OC)C2)c1
Which shows the larger IC50 value: I or II ? Give the label of your selection.
II
(II: 1.15 nM, I: 0.56 nM)
